Experiment: soluble on expression in E. coli; label from the status in PepcDB or PDB records
measurement_name: soluble on expression in E. coli

// known answers, use as guide
Lab note: measured soluble on expression in E. coli of `MLVAERQQKIVEIVNMRSSIRVSELSDIFSVTEETIRRDLEKLEKEHKLSRSHGGAVSIQQKESEIHFSEREITNVIEKKAIAHEAAKYVKSGDRIILDASTTAWYMAKILPDIELTVITNSMKAAIELSNKENISVISTGGILLEKSLSFAGPLAERSLETYHVNKTFLSCKGFDVHNGMSDSNEWQALLKKRMIERSDQTILMADSSKWGNREFSHIASLQDVSRLITDSGLDPASVKALEDKKVKVTAVPLSKRGLEHHHHHH` was soluble

Looking up `GSSGSSGMEAVLNELVSVEDLKNFERKFQSEQAAGSVSKSTQFEYAWCLVRSKYNEDIRRGIVLLEELLPKGSKEEQRDYVFYLAVGNYRLKEYEKALKYVRGLLQTEPQNNQAKELERLIDKAMKKSGPSSG` , I found its soluble on expression in E. coli recorded as soluble

So, `MSLGQGIPANPADGAGEWGDYRDCDSPWKAVEDAVRAAARQHPDAAYVYYTGDIIDHGVWETTVAGNIVSMTRTYQLFRDVFGSKPVYNVLGNHENNPTNVFAPSYITQSEFSAKWLYDFSADQWSTWLPTASQQTIRQGGFYTVLVRPGFRIIGMNNNDAYTFNWWILYDPAYLQAQLQWVHDTLLQAEAAGEKVHILAHIPIGAGTSYRTWARQYRRILDRFWDVITAHFHGHTHADEFNVFYSLANPQHAISAGFNGGGTVPFSNYNPNYVVYYVNPQTYDVTDFESWYFSLTEANQNPNREGHHHHHH` ? Its soluble on expression in E. coli was not soluble

Lookup result for `MFCSSNIPIRLRDKKENNSIIVLPGGSEKSAAGQWRPHLPT` ; measured soluble on expression in E. coli: not soluble

Record summary for `MYFIAGMFDGKEKVNREQPPMPTTDGVEYPRAASWAAGNCANVLNDDKGKQLFRVFLFQSLAEENLAFLEAMEKLKKMKISDEKVAYAKEILETYQGSINLSSSSMKSLRNAVASETLDMEEFAPAIKEVRRLLENDQFPRFRRSELYLEYLEELLPRSYAEKWAQSFEGLLGNHVGRHHFRIFLRSIHAEENLRFWEAVVEFRSSRHKANAMNNLGKVILSTYLAEGTTNEVFLPFGVRQVIERRIQDNQIDITLFDEAIKHVEQVLRNDPYVRFLQSSQYIDLLSKLK` : reported soluble on expression in E. coli = not soluble

// soluble on expression in E. coli value for `MATLYDVPPEELIEALTETLADEDDIEAPDWAEFTKTGVDRELPPEQEDFWTRRAASLLRKVAVDGPVGVNALRSEYGTSKQGTTRYRVRPHQKTKGSGNIIRTALQQLEDAGYVETSENDGRRVTGDGRSLLDDTAGDLLTELDRPELERYALEHHHHHH` : soluble

So, `MSLIYLHGFDSNSPGNHEKVLQLQFIDPDVRLVSYSTRHPKHDMQHLLKEVDKMLQLNVDERPLICGVGLGGYWAERIGFLCDIRQVVFNPNLFPYENMEGKIDRPEEYADIATKCVTNFREKNRDRCLVILSRHDEALDSQRSAQALHPFYEIVWDEEQTHKFKNISPYLQRIKAFKTLGEGHHHHHH` ? Its soluble on expression in E. coli was not soluble

Value of soluble on expression in E. coli reported for the sequence `MSLRKNLEEEQRLIDAKKLSLVIDLDKTLIDTTEVRNRAEVDAIKKLDPAATEDDFFEFNMNQNLLIRYRPHVRQFLASIAPYFDMQIYTLASPAYAHAILSKIDPEDKLFKNRIFSRTAEDFAMIKEAMRNQTDIVNKKNIKKIFPYSDKLVLVLDDSPEVWFCDNNKLFKGLVQIKRYSYFTRQGPNSPPTVNPDYVNDDILIQMRSVLIDVHDMFYKNYDPEESHVIMTLHQRKAQVFEGKTFYFSGLSEDDTMTFTRLAEEFGALVVDSFTPYTTHIIVGEGGTDDQIQKAMEYRGVYIIYLKWLFECFIQYARIEESLYSIQGIPCPTEGHHHHHH` is soluble

# sequence `MPGKRRFRRSPVKYDFFTRLLQTGFLSTDSLLYPESQFHICTQLSSQDAYADNLEHHHHHH` ; its soluble on expression in E. coli = not soluble

Lab note: measured soluble on expression in E. coli of `MNTYAQESKLRLKTKIGADGRCVIEDNFFTPPFKLMAPFYPKDDLAEIMLLAVSPGMMRGDAQDVQLNIGPNCKLRITSQSFEKIHNTEDGFASRDMHIVVGENAFLDFAPFPLIPFENAHFKGNTTISLRSSSQLLYSEIIVAGRVARNELFKFNRLHTKISILQDEKPIYYDNTILDPKTTDLNNMCMFDGYTHYLNLVLVNCPIELSGVRECIEESEGVDGAVSETASSHLCVKALAKGSEPLLHLREKIARLVTQTTTQKVLEHHHHHH` was soluble

***
Form field soluble on expression in E. coli, entry `MGSDKIHHHHHHMIIQSKLIRAALVCAAKNDVRYYLNGLHITPKHIEATNGSVALRMAHGIRTKKNIIVQFEGGVPAKAETTELIFSKEPIAVHRDQFQRRLSITGIKLVDGCFPDLDRIIPKKFDRCTHPVLQAGYLSYPEKMFGRERKFIPVQLRPSGDGQAVRIQFDSIINSMYGNPEFVVMPCRDHGDFNVAQEHPE` : not soluble

Measured soluble on expression in E. coli, `GMSRAPDTWILTADCPSMLGTVDVVTRYLFEQRCYVTEHHSFDDRQSGRFFIRVEFRQPDDFDEAGFRAGLAERSEAFGMAFELTAPNHRPKVVIMVSKADHCLNDLLYRQRIGQLGMDVVAVVSNHPDLEPLAHWHKIPYYHFALDPKDKPGQERKVLQVIEETGAELVILARYMQVLSPELCRRLDGWAINIHHSLLPGFKGAKPYHQAYNKGVKMVGATAHYINNDLDEGPIIAQGVEVVDHSHYPEDLIAKGRDIECLTLARAVGYHIERRVFLNANRTVVL` : soluble

The sequence `MAHHHHHHMDTNDYENLRFYNYIPVNKELKKSCIPCPDTEDYEAKLNKEFDEELTKVFQGNILDQINAKDINADLKRDLKKKLDILSKKTDKAVVQLIKQKINENKNKENITNTNDDEKEKETMTLNFDKKGDKNFGHVLYKTLDKLDVMDDESD` showed soluble on expression in E. coli equal to soluble

The reported value for `MGSDKIHHHHHHMQRRVPLSPDAAHCSSCMLGHVCVPVGMPANEVEKLDELVKERVRVERGKSLYELDDPLDAVYGVRYGSLKTQLEDSSGQLQITGFHLPGEIVGLDGMIESKHVSSAVALEDSEVCVIRLPEIDRVSTQLPSLQQQFRRLMSREITRSHQMLATVGAMRSEQRLAAFLLNLSQRYAALGYSSTEFVLRMSREEIGNYLGLTLETVSRLFSRFGREGLIRINQREVRLIDLPGLKQLIGQESC` in terms of soluble on expression in E. coli is not soluble

// data source = the DeepSol protein solubility set
